Where do the numbers come from? From patent US9132126B2.

Listed below: EC50 values for each entry.
System: novel influenza virus (B/Field)
test method notes: microbe, parasite or virus in culture
Format: cell-based
condition info: unidentified influenza virus

Sample answers from the record:
COc1cccc(N2CCN(C(=O)c3c(-c4cccc(F)c4)noc3C)CC2)c1 [Example 12] = > 50 mg/L
COc1cccc(N2CCN(C(=O)c3c(-c4ccccc4C(F)(F)F)noc3C)CC2)c1 [Example 3] = > 50 mg/L

Given the compound COc1cccc(N2CCN(C(=O)c3c(-c4ccccc4Cl)noc3C)CC2)c1 [Example 9] , what is its reported EC50?
> 50 mg/L
